- target.or.test.system: CDK17/Cyclin Y (Homo sapiens, UniProt Q00537)
- Sequence (Q00537 whole entry): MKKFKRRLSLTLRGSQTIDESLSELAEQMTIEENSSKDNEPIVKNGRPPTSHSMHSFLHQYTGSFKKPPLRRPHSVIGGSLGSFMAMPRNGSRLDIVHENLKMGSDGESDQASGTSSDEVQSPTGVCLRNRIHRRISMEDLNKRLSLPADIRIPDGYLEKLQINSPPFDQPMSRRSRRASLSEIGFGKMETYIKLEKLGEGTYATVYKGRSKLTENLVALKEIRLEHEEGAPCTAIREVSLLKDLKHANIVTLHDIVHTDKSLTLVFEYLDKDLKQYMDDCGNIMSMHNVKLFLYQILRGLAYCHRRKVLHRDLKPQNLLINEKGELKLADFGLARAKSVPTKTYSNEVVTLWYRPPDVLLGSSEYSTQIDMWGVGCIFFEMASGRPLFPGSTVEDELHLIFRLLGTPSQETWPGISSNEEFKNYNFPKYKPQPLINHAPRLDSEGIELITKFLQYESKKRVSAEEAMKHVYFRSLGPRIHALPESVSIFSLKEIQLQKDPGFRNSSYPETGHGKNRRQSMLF
- Sequence (Q8ND76 whole entry partner): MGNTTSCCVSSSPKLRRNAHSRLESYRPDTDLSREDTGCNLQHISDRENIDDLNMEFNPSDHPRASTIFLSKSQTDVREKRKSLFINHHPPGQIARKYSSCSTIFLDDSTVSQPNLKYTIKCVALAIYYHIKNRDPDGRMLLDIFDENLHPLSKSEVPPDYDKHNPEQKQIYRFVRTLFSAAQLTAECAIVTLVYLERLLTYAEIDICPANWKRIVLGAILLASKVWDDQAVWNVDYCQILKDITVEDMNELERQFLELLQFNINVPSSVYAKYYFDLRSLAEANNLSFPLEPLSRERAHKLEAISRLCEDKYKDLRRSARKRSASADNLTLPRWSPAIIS
- assay.protocol: NanoBRET live-cell target engagement, CDK17-NanoLuc/Cyclin Y in HEK-293
- Type: binding
- experimental.setup: CDK17/Y; 10µM; average of replicates; read-out: Inhibition at 10µM (%) Average
Short version: inhibition at 10 µM at least 60% is 1 (yes), less is 0 (no).

Would you please look over these solved cases?
>  <molecule>
COc1cc(F)ccc1-c1ncnc(Nc2cccc(C[S@](C)(=N)=O)c2)n1

>  <target.or.test.system>
CDK17/Cyclin Y (Homo sapiens, UniProt Q00537)

>  <label.value>
0 (no)

$$$$
>  <molecule>
Cc1ncc(-c2ccnc(Nc3ccc(S(C)(=O)=O)cc3)n2)n1C(C)C

>  <target.or.test.system>
CDK17/Cyclin Y (Homo sapiens, UniProt Q00537)

>  <label.value>
1 (yes)

$$$$
>  <molecule>
CCN1CCN(Cc2ccc(Nc3ncc(F)c(-c4cc(F)c5nc(C)n(C(C)C)c5c4)n3)nc2)CC1

>  <target.or.test.system>
CDK17/Cyclin Y (Homo sapiens, UniProt Q00537)

>  <label.value>
1 (yes)

$$$$

Kindly consider the entry below.
Ask: Check the entry `CCCCOc1c(C(=O)c2c(F)cc(C)cc2F)c[nH]c2nncc1-2` : does inhibition at 10 µM equal or exceed 60%?
Reply: 1 (yes)

----------
This listing pairs compounds with measured inhibition at 10 µM.
- target.or.test.system: CDK13/Cyclin K (Homo sapiens, UniProt Q14004)
- Sequence (O75909 whole entry): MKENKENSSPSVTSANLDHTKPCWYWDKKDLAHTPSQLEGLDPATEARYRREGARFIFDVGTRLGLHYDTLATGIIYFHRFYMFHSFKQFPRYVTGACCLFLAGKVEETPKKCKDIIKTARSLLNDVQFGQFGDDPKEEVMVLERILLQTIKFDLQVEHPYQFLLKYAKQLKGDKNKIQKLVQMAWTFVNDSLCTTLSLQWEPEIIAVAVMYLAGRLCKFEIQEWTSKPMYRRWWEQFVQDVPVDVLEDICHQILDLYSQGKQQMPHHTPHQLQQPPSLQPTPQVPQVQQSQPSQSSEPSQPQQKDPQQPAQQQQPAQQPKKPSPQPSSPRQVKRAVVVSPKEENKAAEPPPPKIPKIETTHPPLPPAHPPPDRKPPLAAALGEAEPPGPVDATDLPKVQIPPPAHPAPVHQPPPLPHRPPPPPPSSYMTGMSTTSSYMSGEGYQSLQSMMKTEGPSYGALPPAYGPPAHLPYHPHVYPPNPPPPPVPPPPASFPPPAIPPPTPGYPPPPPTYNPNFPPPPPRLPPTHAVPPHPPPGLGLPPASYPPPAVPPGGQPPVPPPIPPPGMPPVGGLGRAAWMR
- Sequence (Q14004 other isoform, or with tags, fused parts or gaps): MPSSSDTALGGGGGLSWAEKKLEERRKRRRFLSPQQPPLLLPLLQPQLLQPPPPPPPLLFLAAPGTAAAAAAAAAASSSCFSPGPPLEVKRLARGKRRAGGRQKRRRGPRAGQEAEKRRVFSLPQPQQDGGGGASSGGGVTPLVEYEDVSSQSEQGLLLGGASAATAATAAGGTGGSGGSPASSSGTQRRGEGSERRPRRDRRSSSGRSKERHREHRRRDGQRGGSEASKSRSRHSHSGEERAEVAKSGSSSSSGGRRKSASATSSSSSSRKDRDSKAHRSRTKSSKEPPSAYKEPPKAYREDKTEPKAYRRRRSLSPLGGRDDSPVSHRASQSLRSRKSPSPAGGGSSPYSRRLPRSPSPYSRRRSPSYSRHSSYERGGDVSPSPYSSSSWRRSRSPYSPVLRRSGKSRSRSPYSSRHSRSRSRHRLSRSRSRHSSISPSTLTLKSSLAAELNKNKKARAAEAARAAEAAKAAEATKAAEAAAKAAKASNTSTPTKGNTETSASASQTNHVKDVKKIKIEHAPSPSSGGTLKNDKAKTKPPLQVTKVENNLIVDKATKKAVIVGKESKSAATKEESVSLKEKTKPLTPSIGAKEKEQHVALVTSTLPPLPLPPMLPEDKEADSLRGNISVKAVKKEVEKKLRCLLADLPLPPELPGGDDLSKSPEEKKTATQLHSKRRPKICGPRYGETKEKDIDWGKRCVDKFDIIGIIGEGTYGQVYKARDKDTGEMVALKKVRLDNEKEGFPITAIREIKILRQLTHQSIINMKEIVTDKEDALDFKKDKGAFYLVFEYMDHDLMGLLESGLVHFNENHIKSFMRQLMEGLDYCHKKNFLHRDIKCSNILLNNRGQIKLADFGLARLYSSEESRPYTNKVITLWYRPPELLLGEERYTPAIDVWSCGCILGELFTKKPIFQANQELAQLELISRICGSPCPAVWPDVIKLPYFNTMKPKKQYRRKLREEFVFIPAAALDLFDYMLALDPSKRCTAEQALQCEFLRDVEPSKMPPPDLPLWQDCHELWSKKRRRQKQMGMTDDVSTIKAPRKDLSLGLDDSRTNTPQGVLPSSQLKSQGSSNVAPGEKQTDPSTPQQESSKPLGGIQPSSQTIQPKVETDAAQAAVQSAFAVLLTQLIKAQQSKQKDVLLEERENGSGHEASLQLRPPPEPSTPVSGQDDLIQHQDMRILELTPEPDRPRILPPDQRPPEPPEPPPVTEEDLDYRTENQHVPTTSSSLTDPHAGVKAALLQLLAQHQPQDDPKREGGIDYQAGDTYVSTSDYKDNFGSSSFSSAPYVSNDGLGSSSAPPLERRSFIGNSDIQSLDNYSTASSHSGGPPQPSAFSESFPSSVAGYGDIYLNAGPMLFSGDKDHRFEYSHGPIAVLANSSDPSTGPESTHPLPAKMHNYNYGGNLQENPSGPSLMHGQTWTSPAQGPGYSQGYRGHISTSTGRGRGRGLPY
- assay.protocol: NanoBRET live-cell target engagement, CDK13-NanoLuc/Cyclin K in HEK-293
- Type: binding
- experimental.setup: CDK13/K; experiment 2; read-out: Inhibition at 10µM (%)
The answer is to be given in %; state only the numeric part.

Worked set:
>  <compound>
CN1CCN(c2ccc(Nc3ncc4cc(C#N)c(=O)n(C5CCCC5)c4n3)cc2)CC1

>  <unit.of.measure>
%

>  <value.observed>
-29.2

$$$$
>  <compound>
CNC(=O)c1nn(C)c2c1C(C)(C)Cc1cnc(Nc3ccc(N4CCN(C)CC4)cc3)nc1-2

>  <unit.of.measure>
%

>  <value.observed>
12.5

$$$$
>  <compound>
COc1ccc(F)cc1-c1cc(NC(=O)C2CCCNC2)ncc1Cl (stereo not shown)

>  <unit.of.measure>
%

>  <value.observed>
51.1

$$$$

Next item in the queue.
Ask: Name the reported inhibition at 10 µM value associated with the compound `CC(C)N1CCN(c2ccc(Nc3ncc4cc5n(c4n3)C3(CCCCC3)CNC5=O)nc2)CC1`
Reply: -4.7

----------
- target.or.test.system: CDK13/Cyclin K (Homo sapiens, UniProt Q14004)
- assay.protocol: NanoBRET live-cell target engagement, CDK13-NanoLuc/Cyclin K in HEK-293
- Type: binding
- experimental.setup: 10µM; average of experiments; read-out: CDK13/K Inhibition at 10µM (%)
property.measured: inhibition at 10 µM (%)
The answer is to be given in %; state only the numeric part.

>  <molecule>
CN1CCN(c2ccc(Nc3ncc4cc5n(c4n3)C3(CCCCC3)CNC5=O)nc2)CC1

>  <value.observed>
3.3

$$$$
>  <molecule>
CN(C)C/C=C/C(=O)Nc1ccc(C(=O)N2CCC[C@@H](Nc3ncc(Cl)c(-c4c[nH]c5ccccc45)n3)C2)cc1

>  <value.observed>
53.1

$$$$

Next item in the queue.
Ask: Name the reported inhibition at 10 µM value associated with the molecule `CC(C)CC(=O)Nc1[nH]nc2c1CN(C(=O)C1CCN(C)CC1)C2(C)C`
Reply: 17.1
